# System: Kluyveromyces lactis
# assay_method_text: Antifungal activity against Kluyveromyces lactis 2-18B with MATalpha metA1 ura3 leu2 genotype by agar dilution method
# Assay type: functional
metric: MIC

INSERT INTO assay_data (molecule, result) VALUES
  ('O=C(/C=C/c1ccc(O)cc1)c1ccccc1 [4-HYDROXYCHALCONE]', '> 40 µg/mL'),
  ('O=C(/C=C/c1ccc(O)c(O)c1)c1ccc(Cl)cc1', '> 40 µg/mL'),
  ('COc1cccc(/C=C/C(=O)c2ccc(Cl)cc2)c1', '> 40 µg/mL'),
  ('N#Cc1ccc(/C=C/C(=O)c2ccc(Cl)cc2)cc1', '> 40 µg/mL');

We now examine a further molecule.
Note to self: MIC recorded for O=C(/C=C/c1cccc(O)c1)c1ccc(Cl)cc1 was < 20 µg/mL

----------
# System: Ogataea angusta
# assay_method_text: Antifungal activity against Hansenula polymorpha CD3 with ade1 leu2 cds3 genotype by agar dilution method
# Type: functional
# MIC per record follows

INSERT INTO results (compound, result) VALUES
  ('O=C(/C=C/c1ccc(O)cc1)c1ccc(Cl)cc1', '> 40 µg/mL'),
  ('O=C(/C=C/c1ccc(O)c(O)c1)c1ccc(Cl)cc1', '> 40 µg/mL'),
  ('O=C(/C=C/C=C/c1ccccc1)c1ccc(Cl)cc1', '> 40 µg/mL'),
  ('COc1cccc(/C=C/C(=O)c2ccc(Cl)cc2)c1O', '> 40 µg/mL'),
  ('N#Cc1ccc(/C=C/C(=O)c2ccc(Cl)cc2)cc1', '> 40 µg/mL'),
  ('O=C(/C=C/c1cccc(O)c1)c1ccccc1 [3-HYDROXY CHALCONE]', '25 µg/mL'),
  ('O=C(/C=C/c1ccc(O)c(O)c1)c1ccccc1', '> 40 µg/mL'),
  ('CC(=O)Nc1ccc(/C=C/C(=O)c2ccc(Cl)cc2)cc1', '> 40 µg/mL');

Note to self: MIC recorded for O=C(/C=C/c1ccc(Cl)cc1)c1ccc(Cl)cc1 was > 40 µg/mL

Note to self: MIC recorded for O=C(/C=C/c1ccccc1)c1ccc(Cl)cc1 was > 40 µg/mL

Note to self: MIC recorded for Cc1ccc(/C=C/C(=O)c2ccc(Cl)cc2)cc1 was > 40 µg/mL

Note to self: MIC recorded for O=C(/C=C/c1ccc(O)cc1)c1ccccc1 [4-HYDROXYCHALCONE] was > 40 µg/mL

Note to self: MIC recorded for COc1ccc(/C=C/C(=O)c2ccccc2)cc1O was > 40 µg/mL

Note to self: MIC recorded for O=C(/C=C/c1ccc([N+](=O)[O-])cc1)c1ccc(Cl)cc1 was > 40 µg/mL

----------
# Test system: Saccharomyces cerevisiae
# assay_method_text: Antifungal activity against diploid Saccharomyces cerevisiae 1a by agar dilution method
# Type: functional
# MIC per record follows

Use the examples below as a reference point.
INSERT INTO assay_data (smiles_entry, result) VALUES
  ('O=C(/C=C/c1ccc([N+](=O)[O-])cc1)c1ccc(Cl)cc1', '> 40 µg/mL'),
  ('COc1ccc(/C=C/C(=O)c2ccc(Cl)cc2)cc1', '> 40 µg/mL');

We now examine a further molecule.
Note to self: MIC recorded for Cc1ccc(/C=C/C(=O)c2ccc(Cl)cc2)cc1 was > 40 µg/mL

Values from ChEMBL document CHEMBL1158182
